test system: Saccharomyces cerevisiae; test: protein stability index of tFT-peptide fusion (C-terminal peptide) (PSI (0-1 scale)); higher = more stable (slower turnover); conditions: genetic background: doa10 deletion; temperature: 30 C;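 further: PSI is a weighted mean of sequencing reads over stability bins, variants kept only with over 10 reads, mCherry proximal and sfGFP distal, peptide attached via GGGS linker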
# protein stability index per record follows
readout: protein stability index

residue_string=SVFCSLFLFLFY system_tested="Saccharomyces cerevisiae" readout_value=0.414
residue_string=FCRLCYLLLFCC system_tested="Saccharomyces cerevisiae" readout_value=0.211
residue_string=FLFFLFVVFVFV system_tested="Saccharomyces cerevisiae" readout_value=0.323
residue_string=SCGVYVVFVLVE system_tested="Saccharomyces cerevisiae" readout_value=0.128
residue_string=GIISMYVARRLG system_tested="Saccharomyces cerevisiae" readout_value=0.149
residue_string=LGLCFFFYSLHS system_tested="Saccharomyces cerevisiae" readout_value=0.37
residue_string=VFWVVFRALVGD system_tested="Saccharomyces cerevisiae" readout_value=0.222
residue_string=LSLGVGSDAEGG system_tested="Saccharomyces cerevisiae" readout_value=0.646
residue_string=PACPPLPPRSPS system_tested="Saccharomyces cerevisiae" readout_value=0.688
residue_string=VVLWWWVVARDL system_tested="Saccharomyces cerevisiae" readout_value=0.332
residue_string=FFCSLIISRFLL system_tested="Saccharomyces cerevisiae" readout_value=0.139
residue_string=LFFASFLLIGPF system_tested="Saccharomyces cerevisiae" readout_value=0.354
residue_string=FSPLVCLLFFLF system_tested="Saccharomyces cerevisiae" readout_value=0.32
residue_string=CVARWPRPAGSS system_tested="Saccharomyces cerevisiae" readout_value=0.641
residue_string=RPGRWFCFLYCV system_tested="Saccharomyces cerevisiae" readout_value=0.163
residue_string=YNTVALRITLIT system_tested="Saccharomyces cerevisiae" readout_value=0.209
residue_string=LVCLFFLSSLFF system_tested="Saccharomyces cerevisiae" readout_value=0.46
residue_string=CLVKIVIFFLFS system_tested="Saccharomyces cerevisiae" readout_value=0.191
residue_string=TFLFPLPFLFFI system_tested="Saccharomyces cerevisiae" readout_value=0.29
residue_string=RPIFAYRPLRFL system_tested="Saccharomyces cerevisiae" readout_value=0.212
residue_string=LIRVLRVLRHSS system_tested="Saccharomyces cerevisiae" readout_value=0.167
residue_string=LSFFDYVLLQIA system_tested="Saccharomyces cerevisiae" readout_value=0.166
residue_string=SPPPLFLIVLHL system_tested="Saccharomyces cerevisiae" readout_value=0.4
residue_string=GGYVTVTSVTVV system_tested="Saccharomyces cerevisiae" readout_value=0.499
residue_string=VRMMYSVQVWCG system_tested="Saccharomyces cerevisiae" readout_value=0.0293
residue_string=ESCWVSRVGVCR system_tested="Saccharomyces cerevisiae" readout_value=0.588
residue_string=FCLFFFPSLFFF system_tested="Saccharomyces cerevisiae" readout_value=0.333
residue_string=RSRRNRYSRKIA system_tested="Saccharomyces cerevisiae" readout_value=0.0765
residue_string=GVFVVVGEASVH system_tested="Saccharomyces cerevisiae" readout_value=0.389
residue_string=WFVCSGVYGSVM system_tested="Saccharomyces cerevisiae" readout_value=0.653
residue_string=RVVILFVFLVYV system_tested="Saccharomyces cerevisiae" readout_value=0.253
residue_string=ENKGGNQKRRKK system_tested="Saccharomyces cerevisiae" readout_value=0.646
residue_string=LPPHLPFPLSAA system_tested="Saccharomyces cerevisiae" readout_value=0.43
residue_string=PLLPCRPILFLL system_tested="Saccharomyces cerevisiae" readout_value=0.125
residue_string=HCLLQDVPPTLH system_tested="Saccharomyces cerevisiae" readout_value=0.703
residue_string=VRVWLLACASKG system_tested="Saccharomyces cerevisiae" readout_value=0.228
residue_string=RAFFLLYCTLWA system_tested="Saccharomyces cerevisiae" readout_value=0.132
residue_string=GVWSLDWFLLVW system_tested="Saccharomyces cerevisiae" readout_value=0.134
residue_string=GLPGYAWGRSGG system_tested="Saccharomyces cerevisiae" readout_value=0.776
residue_string=VCLFFFGYWCCL system_tested="Saccharomyces cerevisiae" readout_value=0.493
residue_string=VHHAFLPYTLVR system_tested="Saccharomyces cerevisiae" readout_value=0.361
residue_string=TKDFVIKKTKIS system_tested="Saccharomyces cerevisiae" readout_value=0.135
residue_string=SFCVLLQFCVLV system_tested="Saccharomyces cerevisiae" readout_value=0.336
